- System: phospho-STAT5 (Y694)
- protocolText: Inhibition of kinase phosphorylation by Western Blot in MOLM-13
- Type: cell-based
- conditionsUsed: Homo sapiens; MOLM-13 cells, 4 hour-incubation; read-out: pSTAT5 MOLM-13 IC50
valueType: IC50

• CCc1nc(C(N)=O)c(Nc2ccc(N3CCC(N4CCN(C)CC4)CC3)c(OC)c2)nc1NC1CCOCC1 [Gilteritinib, reference compound] = 2.23 nM

====

Parameter 'readout' = pIC50; parameter 'system' = CLK2 (Homo sapiens (Human)).
Sequence (P49760 whole entry): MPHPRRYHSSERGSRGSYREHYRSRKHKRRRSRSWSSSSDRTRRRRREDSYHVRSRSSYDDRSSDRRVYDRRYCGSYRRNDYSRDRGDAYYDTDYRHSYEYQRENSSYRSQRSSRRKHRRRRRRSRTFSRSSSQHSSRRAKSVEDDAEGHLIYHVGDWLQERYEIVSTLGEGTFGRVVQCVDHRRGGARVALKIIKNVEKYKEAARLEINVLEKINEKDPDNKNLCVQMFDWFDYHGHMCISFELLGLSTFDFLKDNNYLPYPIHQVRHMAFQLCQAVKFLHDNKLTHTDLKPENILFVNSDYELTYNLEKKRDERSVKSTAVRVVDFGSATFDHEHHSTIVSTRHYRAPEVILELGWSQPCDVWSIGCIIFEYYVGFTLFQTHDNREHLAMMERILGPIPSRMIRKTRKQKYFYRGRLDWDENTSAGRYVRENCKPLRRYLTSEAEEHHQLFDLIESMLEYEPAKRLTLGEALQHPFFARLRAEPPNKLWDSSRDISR
pIC50: −log10 of the molar value.
valueType: pIC50

- CCOc1nn(CCO)c2c1/C=C/c1n[nH]c3ccc(cc13)-c1cnn(C)c1OCCN(C)C2=O [Ex. 27]: 8.95
- CN1CCOc2c(cnn2C)-c2ccc3[nH]nc(c3c2)/C=C/c2c(C#N)nn(C)c2C1=O [Ex. 24]: 9.17
- CCc1nn(C)c2c1/C=C/c1n[nH]c3ccc(cc13)-c1cnn(C)c1OCCN(C)C2=O [Ex. 6]: 9.78
- CCc1nn(C)c2c1/C=C/c1n[nH]c3ccc(cc13)-c1cnn(C)c1O[C@@H](C)CN(C)C2=O [Ex. 23]: 9.65

====

- Tested on: PC-9
- protocolText: Cell proliferation panel (CellTiter-Glo 2.0, 5 days)
- Format: cell-based
- conditionsUsed: Lung adenocarcinoma NSCLC
pIC50: −log10 of the molar value.
valueType: pIC50

* CCc1nn(C)c2c1/C=C/c1n[nH]c3ccc(cc13)-c1cnn(C)c1OCCN(C)C2=O [Ex. 6] | 6.79

====

- System: THP-1
- protocolText: Cell proliferation panel (CellTiter-Glo 2.0, 5 days)
- Assay type: cell-based
- conditionsUsed: Acute monocytic leukemia
pIC50: −log10 of the molar value.
valueType: pIC50

* CCc1nn(C)c2c1/C=C/c1n[nH]c3ccc(cc13)-c1cnn(C)c1OCCN(C)C2=O [Ex. 6] | 6.97

====

- measuredOn: FLT3 (K663Q) (Homo sapiens (Human), UniProt P36888, K663Q)
- protocolText: KINOMEscan binding assay (Eurofins DiscoveRx)
valueType: Kd (nM)

• CCc1nn(C)c2c1/C=C/c1n[nH]c3ccc(cc13)-c1cnn(C)c1OCCN(C)C2=O = 16

====

The following molecules are shown together with reported IC50 values.
- measuredOn: FLT3-ITD (Homo sapiens)
- protocolText: HotSpot radiometric kinase assay (Reaction Biology)
valueType: IC50 (nM)

- CCc1nn(C)c2c1/C=C/c1n[nH]c3ccc(cc13)-c1cnn(C)c1OCCN(C)C2=O: 0.348
- CCc1c2c(nn1C)C(=O)N(C)CCOc1c(cnn1C)-c1ccc3[nH]nc(c3c1)/C=C/2: 0.537

====

- Test system: SW620
- protocolText: Cell proliferation panel (CellTiter-Glo 2.0, 5 days)
- Format: cell-based
- conditionsUsed: Colorectal adenocarcinoma
pIC50: −log10 of the molar value.
valueType: pIC50

* CCc1nn(C)c2c1/C=C/c1n[nH]c3ccc(cc13)-c1cnn(C)c1OCCN(C)C2=O | 7.12

====

- measuredOn: FLT3-autoinhibited (Homo sapiens (Human), UniProt P36888)
pKd: −log10 of the molar value.
valueType: pKd

* CCc1nn(C)c2c1/C=C/c1n[nH]c3ccc(cc13)-c1cnn(C)c1OCCN(C)C2=O [Ex. 6] | 8.04

====

- System: phospho-STAT5 (Y694)
- protocolText: Inhibition of kinase phosphorylation by Western Blot in MV-4-11
- Format: cell-based
- conditionsUsed: Homo sapiens, MV4-11; MV-4-11 cells, 4 hour-incubation; read-out: pSTAT5 MV-4-11 IC50
pIC50: −log10 of the molar value.
valueType: pIC50

* CCc1nc(C(N)=O)c(Nc2ccc(N3CCC(N4CCN(C)CC4)CC3)c(OC)c2)nc1NC1CCOCC1 [Gilteritinib, reference compound] | 8.76

====

- measuredOn: phospho-FLT3 (Y589/Y591) (Homo sapiens (Human), UniProt P36888, INS600HVDFREYEYD)
- protocolText: Inhibition of kinase phosphorylation by Western Blot in MV-4-11
- conditionsUsed: MV-4-11 cells, 4 hour-incubation; read-out: pFLT3 MV-4-11 IC50
pIC50: −log10 of the molar value.
valueType: pIC50

* CCc1nn(C)c2c1/C=C/c1n[nH]c3ccc(cc13)-c1cnn(C)c1OCCN(C)C2=O | 9.80

====

- measuredOn: FLT3 (ITD, F691L)
- protocolText: KINOMEscan binding assay (Eurofins DiscoveRx)
pKd: −log10 of the molar value.
valueType: pKd

* CCc1nn(C)c2c1/C=C/c1n[nH]c3ccc(cc13)-c1cnn(C)c1OCCN(C)C2=O [Ex. 6] | 9.64

====

- Test system: HPAC
- protocolText: Cell proliferation panel (CellTiter-Glo 2.0, 5 days)
- Format: cell-based
- conditionsUsed: Pancreatic carcinoma
valueType: IC50 (nM)

* CCc1nn(C)c2c1/C=C/c1n[nH]c3ccc(cc13)-c1cnn(C)c1OCCN(C)C2=O [Ex. 6] | 79.1

====

- Test system: SU-DHL-6
- protocolText: Cell proliferation panel (CellTiter-Glo 2.0, 5 days)
- Format: cell-based
- conditionsUsed: Diffuse Large B Cell Lymphoma
valueType: IC50 (nM)

• CCc1nn(C)c2c1/C=C/c1n[nH]c3ccc(cc13)-c1cnn(C)c1OCCN(C)C2=O [Ex. 6] = 28.4

====

- Test system: Toledo
- protocolText: Cell proliferation panel (CellTiter-Glo 2.0, 5 days)
- Type: cell-based
- conditionsUsed: Diffuse Large B Cell Lymphoma
valueType: IC50

- CCc1nn(C)c2c1/C=C/c1n[nH]c3ccc(cc13)-c1cnn(C)c1OCCN(C)C2=O: 34.6 nM

====

- Tested on: AGS
- protocolText: Cell proliferation panel (CellTiter-Glo 2.0, 5 days)
- Format: cell-based
- conditionsUsed: Gastric adenocarcinoma
valueType: IC50

• CCc1nn(C)c2c1/C=C/c1n[nH]c3ccc(cc13)-c1cnn(C)c1OCCN(C)C2=O = 87.9 nM

====

- Tested on: KCL22S
- protocolText: Cell proliferation panel (CellTiter-Glo 2.0, 5 days)
- Format: cell-based
- conditionsUsed: Chronic myeloid leukemia at blast crisis
pIC50: −log10 of the molar value.
valueType: pIC50

• CCc1nn(C)c2c1/C=C/c1n[nH]c3ccc(cc13)-c1cnn(C)c1OCCN(C)C2=O [Ex. 6] = 7.21

====

- Tested on: JPC3
- protocolText: Cell proliferation panel (CellTiter-Glo 2.0, 5 days)
- Assay type: cell-based
- conditionsUsed: Lung carcinoma
valueType: IC50 (nM)

• CCc1nn(C)c2c1/C=C/c1n[nH]c3ccc(cc13)-c1cnn(C)c1OCCN(C)C2=O = 171

====

Quick reference for IC50 among some molecules
- System: MV-4-11 cells
- protocolText: MV-4-11 cell proliferation assay (CellTiter-Glo 2.0)
- Assay type: cell-based
- conditionsUsed: Homo sapiens, MV4-11; MV-4-11, 384-well, 11-dose dilution series; read-out: IC50, inhibition of MV-4-11 cell proliferation
valueType: IC50 (nM)

- CCc1nn(C)c2c1/C=C/c1n[nH]c3ccc(cc13)-c1cc(F)ccc1OCCN(C)C2=O [Ex. 2]: 353
- Cc1nn(C)c2c1/C=C/c1n[nH]c3ccc(cc13)-c1cnn(C)c1CN(C)CCN(C)C2=O [Ex. 15]: 4.6
- CCOc1nn(CCO)c2c1/C=C/c1n[nH]c3ccc(cc13)-c1cnn(C)c1OCCN(C)C2=O [Ex. 27]: 7.6
- Cc1nn(C)c2c1/C=C/c1n[nH]c3ccc(cc13)-c1cnn(C)c1OCCOCCN(C)C2=O [compound 14]: 384
- CN1CCOc2c(cnn2C)-c2ccc3[nH]nc(c3c2)/C=C/c2c(C#N)nn(C)c2C1=O [Ex. 24]: 141
- Cc1nn(C)c2c1/C=C/c1n[nH]c3ccc(cc13)-c1cnn(C)c1OCCCN(C)C2=O [Ex. 13]: 15.5
- Cc1nn(CCN2CCCC2)c2c1/C=C/c1n[nH]c3ccc(cc13)-c1cnn(C)c1OCCN(C)C2=O [Ex. 18]: 17.8
- CCc1c2c(nn1C)C(=O)N(C)CCOc1ccc(F)cc1-c1ccc3[nH]nc(c3c1)/C=C/2 [Ex. 1]: 1160
- Cc1c2c(nn1CCN1CCCC1)C(=O)N(C)CCOc1c(cnn1C)-c1ccc3[nH]nc(c3c1)/C=C/2 [Ex. 19]: 15.2
- Cc1c2c(nn1C)C(=O)NCCOc1c(cnn1C)-c1ccc3[nH]nc(c3c1)/C=C/2 [Ex. 10]: 865
- Cc1nn(C(C)C)c2c1/C=C/c1n[nH]c3ccc(cc13)-c1cnn(C)c1OCCN(C)C2=O [compound 20]: 1.1

====

- measuredOn: FLT3-ITD (Homo sapiens, UniProt P36888, ITD)
- protocolText: HotSpot radiometric kinase assay (Reaction Biology)
valueType: IC50 (nM)

• CCc1nn(C)c2c1/C=C/c1n[nH]c3ccc(cc13)-c1cnn(C)c1O[C@@H](C)CN(C)C2=O = 0.967
• Cc1nn(C(C)C)c2c1/C=C/c1n[nH]c3ccc(cc13)-c1cnn(C)c1OCCN(C)C2=O = 0.775
• Cc1c2c(nn1CCN1CCCC1)C(=O)N(C)CCOc1c(cnn1C)-c1ccc3[nH]nc(c3c1)/C=C/2 = 1.05
• CCOc1nn(C)c2c1/C=C/c1n[nH]c3ccc(cc13)-c1cnn(C)c1OCCN(C)C2=O = 0.527
• Cc1c2c(nn1C)C(=O)N(C)CCOc1c(cnn1C)-c1ccc3[nH]nc(c3c1)/C=C/2 = 0.592
• CN1CCOc2c(cnn2C)-c2ccc3[nH]nc(c3c2)/C=C/c2c(C#N)nn(C)c2C1=O = 0.475
